Target: Abl kinase (Homo sapiens, UniProt P00519)
Sequence (P00519 229-512): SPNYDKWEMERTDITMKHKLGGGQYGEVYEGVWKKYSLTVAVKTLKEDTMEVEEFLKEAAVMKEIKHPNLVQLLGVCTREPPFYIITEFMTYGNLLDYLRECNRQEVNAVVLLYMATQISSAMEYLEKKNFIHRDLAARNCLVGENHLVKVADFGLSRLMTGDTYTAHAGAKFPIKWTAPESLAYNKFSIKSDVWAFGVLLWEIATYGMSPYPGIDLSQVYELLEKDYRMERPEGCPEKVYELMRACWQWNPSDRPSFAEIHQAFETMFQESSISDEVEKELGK
Assay: Abl kinase assay A1 (pyruvate kinase/lactate dehydrogenase coupled, spectrophotometric)
Format: biochemical
Details: Method A1; read-out: Abl Data (IC50)
Measured Quantity: IC50 (µM)

| Compound | Result Number |
| --- | --- |
| CC(C)(C)c1cc(NC(=O)Nc2cc(F)cc(F)c2)n(-c2cc(CC(N)=O)c3ccccc3c2)n1 [Example 83] | 0.087 |
| CC(C)(C)c1cc(NC(=O)Nc2cccc(Cl)c2Cl)n(-c2cc(CNC(=O)NS(C)(=O)=O)c3ccccc3c2)n1 [Example 75] | 0.063 |
| CC(C)(C)c1cc(NC(=O)Nc2cc(F)c(F)c(F)c2)n(-c2cccc(C#N)c2)n1 [Example 12] | 0.39 |
| CC(C)(C)c1cc(NC(=O)Nc2cc(F)c(F)cc2F)n(-c2ccc3c(c2)CCN3S(C)(=O)=O)n1 [Example 110] | 0.36 |
| CC(C)(C)c1cc(NC(=O)Nc2cc(F)c(F)cc2F)n(-c2cc(CO)c3ccccc3c2)n1 [Example 64] | 0.063 |
